measurement-target: T1, Human GDF15 native: naturally produced human GDF15 purchased from Peprotech (human, UniProt Q99988 195-308)
T1 construct: Bought protein
T1 sequence: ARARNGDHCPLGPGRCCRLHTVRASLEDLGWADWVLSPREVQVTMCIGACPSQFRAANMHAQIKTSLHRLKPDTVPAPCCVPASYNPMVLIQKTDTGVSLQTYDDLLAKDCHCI
assay-notes: Biacore SPR, IgG captured via anti-human Fc, GDF15 in flow
measured-property: pKd
// pKd here means minus log10 of the molar concentration (mol/L)

Record excerpt, results attached:
ABGDF15-F (antibody, human IgG1, lambda, V domains shown, captured through anti-human Fc in the Biacore assay) VH: EVQLVQSGAEVKKPGESLKISCKGSGYSFTSYWIGWVRQMPGKGLEWMGVIDPSGSYTIYSPSFQGQVTISADKSISTAYLQWSSLKASDTAMYYCARYGRYGTYFDYWGQGTLVTVSS VL: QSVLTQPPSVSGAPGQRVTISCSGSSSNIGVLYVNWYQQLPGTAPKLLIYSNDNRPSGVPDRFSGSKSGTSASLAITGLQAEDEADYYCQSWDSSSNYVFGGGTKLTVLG ... 10.43
ABGDF15-B (antibody, human IgG1, lambda, V domains shown, captured through anti-human Fc in the Biacore assay) VH: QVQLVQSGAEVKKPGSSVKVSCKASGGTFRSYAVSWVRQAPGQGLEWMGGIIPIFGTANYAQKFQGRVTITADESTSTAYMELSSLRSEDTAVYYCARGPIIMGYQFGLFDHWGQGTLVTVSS VL: SYELTQPLSVSVALGQTARITCSGDNIGSHIVSWYQQKPGQAPVLVIYDKSNRPSGIPERFSGSNSGNTATLTISRAQAGDEADYYCQTWDSIGSVVFGGGTKLTVLG ... 9.94

Lab note: ABGDF15-G (antibody, human IgG1, kappa, V domains shown, captured through anti-human Fc in the Biacore assay) VH: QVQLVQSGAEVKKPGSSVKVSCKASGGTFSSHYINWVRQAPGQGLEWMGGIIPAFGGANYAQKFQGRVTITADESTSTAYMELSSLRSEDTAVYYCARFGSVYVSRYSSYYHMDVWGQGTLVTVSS VL: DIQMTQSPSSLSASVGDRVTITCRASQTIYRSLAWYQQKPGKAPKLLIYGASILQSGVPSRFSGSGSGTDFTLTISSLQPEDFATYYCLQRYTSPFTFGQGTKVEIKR gave pKd of 10.05

binder ABGDF15-C (antibody, human IgG1, lambda, V domains shown, captured through anti-human Fc in the Biacore assay) VH: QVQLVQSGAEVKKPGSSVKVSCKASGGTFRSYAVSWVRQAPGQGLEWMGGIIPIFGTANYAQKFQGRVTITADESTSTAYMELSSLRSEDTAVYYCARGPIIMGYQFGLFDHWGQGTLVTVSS VL: SYELTQPPSVSVSPGQTASITCSGDNIGSHIVSWYQQKPGQSPVLVIYDKSNRPSGIPERFSGSNSGNTATLTISGTQAMDEADYYCQTWDSIGSVVFGGGTKLTVLG , pKd observed: 10.18
